Assay: pharmacokinetic properties test in dogs
Format: in vivo
Settings: dog; Beagle, 5 mg/kg oral gavage, single, fasted, plasma
I'd be grateful if you could share measured half-life for these entries.
Answers are plain numbers, in h.

1) N#Cc1ccc(S(=O)(=O)N2CC(=C3CN(C(=O)[C@H](CO)c4ccccc4)C3)C2)cc1	4.47

Turning now to a further molecule:
query: Fill in: half-life of O=C([C@H](CO)c1ccc(F)cc1F)N1CC(=C2CN(S(=O)(=O)c3ccccn3)C2)C1 is ___
result: 5.21

---

I'd be grateful if you could share measured Vd for these entries.
Assay: pharmacokinetic properties test in dogs
Assay type: in vivo
Details: dog; Beagle, 2 mg/kg intravenous injection, single, plasma; read-out: Vss
Answers are plain numbers, in L/kg.

1. O=C([C@H](CO)c1ccc(F)cc1F)N1CC(=C2CN(S(=O)(=O)c3ccccn3)C2)C1 [Compound 83]	1.93

Turning now to a further molecule:
query: Fill in: Vd of N#Cc1ccc(S(=O)(=O)N2CC(=C3CN(C(=O)[C@H](CO)c4ccccc4)C3)C2)cc1 [Compound 65] is ___
result: 1.55

---

Assay: pharmacokinetic properties test in dogs
Assay type: in vivo
Settings: dog; Beagle, 2 mg/kg intravenous injection, single, plasma; read-out: MRT0-t
EXPERIMENTAL_READOUT: MRT last (h)
Answers are plain numbers, in h.

1. N#Cc1ccc(S(=O)(=O)N2CC(=C3CN(C(=O)[C@H](CO)c4ccccc4)C3)C2)cc1 [Compound 65]	5.53

query: Fill in: MRT last of O=C([C@H](CO)c1ccc(F)cc1F)N1CC(=C2CN(S(=O)(=O)c3ccccn3)C2)C1 [Compound 83] is ___
result: 2.79

---

Biological target: recombinant human PKR (Homo sapiens, UniProt P30613)
Sequence (P30613 whole entry): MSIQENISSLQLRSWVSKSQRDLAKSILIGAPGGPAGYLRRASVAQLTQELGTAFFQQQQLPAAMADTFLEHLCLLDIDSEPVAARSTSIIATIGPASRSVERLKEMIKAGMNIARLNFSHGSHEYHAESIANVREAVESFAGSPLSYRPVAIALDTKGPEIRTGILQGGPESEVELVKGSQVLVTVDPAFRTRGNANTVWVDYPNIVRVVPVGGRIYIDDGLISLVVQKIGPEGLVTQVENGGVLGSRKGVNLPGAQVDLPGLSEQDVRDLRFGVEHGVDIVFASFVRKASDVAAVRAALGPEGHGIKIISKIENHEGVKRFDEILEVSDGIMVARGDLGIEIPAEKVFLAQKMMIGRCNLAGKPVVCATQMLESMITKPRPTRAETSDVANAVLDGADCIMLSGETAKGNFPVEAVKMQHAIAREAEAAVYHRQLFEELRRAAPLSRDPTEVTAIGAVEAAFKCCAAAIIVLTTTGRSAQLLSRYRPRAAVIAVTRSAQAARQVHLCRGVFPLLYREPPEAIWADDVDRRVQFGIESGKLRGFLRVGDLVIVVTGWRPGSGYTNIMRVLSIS
Experiment: pyruvate kinase (PKR) activity test, activation of recombinant enzyme (fluorescence kit)
Type: biochemical
I'd be grateful if you could share measured AC50 for these entries.

Sample answers from the record:
1. NC(C(=O)N1CC(=C2CN(S(=O)(=O)c3ccc(OC(F)F)cc3)C2)C1)c1ccccc1 (stereo not shown)	300 to 1000 nM
2. O=C([C@H](CO)c1ccccc1)N1CC(=C2CN(S(=O)(=O)c3ccc(-c4ncco4)c(F)c3)C2)C1	300 to 1000 nM
3. CCOc1ccc(S(=O)(=O)N2CC(=C3CN(C(=O)[C@H](CO)c4ccccc4)C3)C2)nc1	< 100 nM
4. CC(C)(O)C(C(=O)N1CC(=C2CN(S(=O)(=O)c3ccccn3)C2)C1)c1ccccc1 (stereo not shown)	300 to 1000 nM
5. O=C(c1c[nH]c2ccccc12)N1CC(=C2CN(S(=O)(=O)c3ccc4ncsc4c3)C2)C1	300 to 1000 nM

Return reported AC50 values for all items listed beneath this line.
1. COc1ccc(S(=O)(=O)N2CC(=C3CN(C(=O)[C@H](CO)c4ccc(F)cc4F)C3)C2)nc1
2. O=C(C(CO)c1cccnc1)N1CC(=C2CN(S(=O)(=O)c3ccccn3)C2)C1 (stereo not shown)

result:
1: < 100 nM; 2: 300 to 1000 nM

---

Target: PKR in ex vivo red blood cells from healthy individuals (Homo sapiens)
Construct: endogenous in cells; host or cells: human red blood cells isolated from fresh peripheral blood of healthy individuals
Test: ex vivo pyruvate kinase (PKR) activity experiment, red blood cells of healthy individuals
Assay type: cell-based
Details: 3 hours co-cultivation
I'd be grateful if you could share measured AC50 for these entries.

Sample answers from the record:
1) O=C(N1CC(=C2CN(S(=O)(=O)c3ccc(OC(F)F)cc3)C2)C1)C1(c2ccccc2)CCOC1 (stereo not shown) [Compound 37]	300 to 1000 nM
2) COc1ccc(S(=O)(=O)N2CC(=C3CN(C(=O)[C@H](CO)c4ccc(F)cc4F)C3)C2)nc1 [Compound 87]	< 100 nM
3) O=C(C1NCc2ccccc21)N1CC(=C2CN(S(=O)(=O)c3ccc4ncsc4c3)C2)C1 (stereo not shown) [Compound 64]	300 to 1000 nM

Turning now to a further compound:
query: Fill in: AC50 of O=C(C(CO)c1ccc(F)cc1)N1CC(=C2CN(S(=O)(=O)c3ccc4ncsc4c3)C2)C1 (stereo not shown) [Compound 50] is ___
result: < 100 nM

---

Experiment: pharmacokinetic properties test in mice
Type: in vivo
Settings: ICR mouse, 10 mg/kg oral gavage, single, fasted, plasma; read-out: MRT0-t
I'd be grateful if you could share measured MRT last for these entries.
Numbers only, in h.

Return reported MRT last values for all items listed beneath this line.
1. N#Cc1ccc(S(=O)(=O)N2CC(=C3CN(C(=O)[C@H](CO)c4ccccc4)C3)C2)cc1
2. O=C([C@H](CO)c1ccc(F)cc1F)N1CC(=C2CN(S(=O)(=O)c3ccccn3)C2)C1

result:
1. 1.89
2. 1.71

---

Experiment: pharmacokinetic properties test in dogs
Assay type: in vivo
Conditions: dog; Beagle, 2 mg/kg intravenous injection, single, plasma
Method: The pharmacokinetic properties of the compounds of the present disclosure in different animal species were investigated by measuring plasma drug concentrations following intravenous and oral gavage in mouse, rat, and dog. i. The compounds were weighed, then the solvent (5% DMSO + 10% Solutol + 85% saline) was added to prepare the administration solution. ii. […] Pharmacokinetic parameters were calculated using Phoenix WinNonlin 7.0 using plasma drug concentration data at different time points.
I'd be grateful if you could share measured AUC(0-t) for these entries.
One number for each entry, in ng·h/mL.

1. N#Cc1ccc(S(=O)(=O)N2CC(=C3CN(C(=O)[C@H](CO)c4ccccc4)C3)C2)cc1	8570

Turning now to a further compound:
query: Fill in: AUC(0-t) of O=C([C@H](CO)c1ccc(F)cc1F)N1CC(=C2CN(S(=O)(=O)c3ccccn3)C2)C1 is ___
result: 3110

---

Assay: pharmacokinetic properties test in mice
Type: in vivo
Conditions: ICR mouse, 1 mg/kg intravenous injection, single, plasma
EXPERIMENTAL_READOUT: clearance (mL/min/kg)
One number for each entry, in mL/min/kg.

1. N#Cc1ccc(S(=O)(=O)N2CC(=C3CN(C(=O)[C@H](CO)c4ccccc4)C3)C2)cc1	25.1

query: Fill in: clearance of O=C([C@H](CO)c1ccc(F)cc1F)N1CC(=C2CN(S(=O)(=O)c3ccccn3)C2)C1 is ___
result: 62.9

---

I'd be grateful if you could share measured AC50 for these entries.
Target: PKR in ex vivo red blood cells from healthy individuals (Homo sapiens, UniProt P30613)
Construct: endogenous in cells; host or cells: human red blood cells isolated from fresh peripheral blood of healthy individuals
Assay: ex vivo pyruvate kinase (PKR) activity experiment, red blood cells of healthy individuals
Type: cell-based
Conditions: 3 hours co-cultivation

Sample answers from the record:
1) N#Cc1ccc(S(=O)(=O)N2CC(=C3CN(C(=O)[C@H](CO)c4ccccc4)C3)C2)nc1	101 to 300 nM
2) O=C([C@H](CO)c1ccccc1)N1CC(=C2CN(S(=O)(=O)c3cccnc3)C2)C1	101 to 300 nM
3) Cc1ccc(C(CO)C(=O)N2CC(=C3CN(S(=O)(=O)c4ccccn4)C3)C2)cc1 (centres unmarked)	< 100 nM

Return reported AC50 values for all items listed beneath this line.
1. O=C(C(O)c1ccccc1)N1CC(=C2CN(S(=O)(=O)c3ccc(OC(F)F)cc3)C2)C1 (centres unmarked)
2. O=C(C(CO)c1ccc(F)c(Cl)c1)N1CC(=C2CN(S(=O)(=O)c3ccccn3)C2)C1 (centres unmarked)
3. O=C([C@H](CO)c1ccccc1)N1CC(=C2CN(S(=O)(=O)c3ccc4c(c3)NCCO4)C2)C1
4. O=C(C(CO)c1ccc(C(F)F)cc1)N1CC(=C2CN(S(=O)(=O)c3ccccn3)C2)C1 (centres unmarked)
5. CNCC(C(=O)N1CC(=C2CN(S(=O)(=O)c3ccc4c(c3)OCCO4)C2)C1)c1cccc(Cl)c1 (centres unmarked)

result:
1: < 100 nM; 2: < 100 nM; 3: 300 to 1000 nM; 4: 101 to 300 nM; 5: 300 to 1000 nM

---

Target: PKR in ex vivo red blood cells from healthy individuals (Homo sapiens)
Construct: endogenous in cells; host or cells: human red blood cells isolated from fresh peripheral blood of healthy individuals
Test: ex vivo pyruvate kinase (PKR) activity experiment, red blood cells of healthy individuals
Assay type: cell-based
Conditions: 3 hours co-cultivation
I'd be grateful if you could share measured AC50 for these entries.

Return reported AC50 values for all items listed beneath this line.
1. Cn1cnc2ccc(S(=O)(=O)N3CC(=C4CN(C(=O)[C@H](CO)c5ccccc5)C4)C3)cc21
2. O=C([C@H](CO)c1ccccc1)N1CC(=C2CN(S(=O)(=O)c3ccc(F)cc3)C2)C1
3. O=C([C@H](CO)c1ccccc1)N1CC(=C2CN(S(=O)(=O)c3ccc(-c4ncco4)c(F)c3)C2)C1
4. O=C(C(CF)c1ccccc1)N1CC(=C2CN(S(=O)(=O)c3ccccn3)C2)C1 (stereo not shown)
5. O=C([C@H](CO)c1ccccc1)N1CC(=C2CN(S(=O)(=O)c3ccc(OC(F)F)cc3)C2)C1

result:
300 to 1000 nM
< 100 nM
300 to 1000 nM
101 to 300 nM
< 100 nM

Return reported AC50 values for all items listed beneath this line.
1. O=C(C(CO)c1ccc(F)cc1)N1CC(=C2CN(S(=O)(=O)c3ccc4c(c3)OC(F)(F)O4)C2)C1 (stereo not shown)
2. O=C(Cc1ccccc1)N1CC(=C2CN(S(=O)(=O)c3ccc4ncsc4c3)C2)C1

result:
1: < 100 nM; 2: 300 to 1000 nM
